Where do the numbers come from? From patent US20180016324A1.

# experimental.target: T1, ZIKV (prM80E) with a C-terminal myc-myc-hexahistidine tag (Zika virus, UniProt A0A024B7W1 104-694)
# T1 construct: also called ZIKV (prM80E)-mmH; ZIKV-mmH
# method.summary: SPR, mAb captured, 25C
reported.property: kon (M⁻¹ s⁻¹)
Numeric answer only, unit M⁻¹ s⁻¹ assumed.

Please review the entries below; each comes with its answer.
| binder | reported.property | unit.of.measure | endpoint.value |
| --- | --- | --- | --- |
| H4H25619P (antibody, V domains shown) VH: QVQLVESGGGVVQPGRSLRLSCTASGFTFSTYGMHWVRHVPGKGLEWVAIVWYDGSDKSYAASVKGRFTISRDNSKNTLFLQMNSLRAEDTAVYYCARQGTYYYYGMDVWGQGTTVTVSS VL: DIQMTQSPSSLSASVGDRVTITCRSSQTITNYLNWYQQRPGKAPKLLIYAASSLQSGVPSRFSGSGSGTDFTLTISSLQPEDFATYYCQQSYSTPPITFGQGTKLEIKR | kon | M⁻¹ s⁻¹ | 164000 |
| H4H25592P (antibody, V domains shown) VH: QVQLVESGGGVVQPGRSLRLSCAASGFTFSYSGMHWVRQAPGKGLEWVAVISYDGSNKYYADSVKGRFTISRDNSNNILYLQMNSLRAEDTAVYYCAKDWGGRFDPWGQGTLVTVSS VL: DIQMTQSPSSLSASVGDRVTITCRASQGISSYLAWYQQIPGKVPKLLIYAASTLHSGVPSRFSGSGSGTDFTLTISSLQPADVATYYCQKYNSAPLTFGGGTKVEIK | kon | M⁻¹ s⁻¹ | 1.35e+06 |
| H4H25703N (antibody, V domains shown) VH: QVQLVESGGGVVQPGRSLRLSCAASGFTFNYYGMHWVRQAPGKGLEWVAVISYDGTNKYYADSVKGRFTTSRDNSKNTLYLQMNSLRAEDTALYYCARDRGGRFDYWGQGIQVTVSS VL: EIVLTQSPDTLSLSPGERATLSCRASQSVSSNYLAWYQQKPGQAPRLLIYGASSRATGIPDRFSGSGSGTDFTLTISRLEPEDFAVYYCQRYGTSPLTFGGGTKVEIKR | kon | M⁻¹ s⁻¹ | 566000 |
| H4H25641P (antibody, V domains shown) VH: QVQLVESGGGVVQPGRSLRLSCAASGFTFSYYGMHWVRQAPGKGLEWVAVISYDASNNYYVDSVKGRFTISRDNSKNTLYLQMNSLRAEDTAVYYCAKDYGGRFDYWGQGTLVTVSS VL: EIVLTQSPGTLSLSPGERATLSCGASQSVSSYLAWYQQKPGQTPRLLIYGASSRATGIPDRFSGSGSGTDFTLTISRLEPEDFAVYYCQQYGSSPWTFGQGTKVEIK | kon | M⁻¹ s⁻¹ | 1.05e+06 |

The record that follows has no kon shown yet.
(Q) Could you tell me which kon is on file for H4H25598P (antibody, V domains shown) VH: EVQLVESGGGLVQPGGSLRLSCAASGFTVSSNYMSWVRQAPGSGLEWVSVIYSGGITHYIGSVKGRFTISRHNSKNTLYLQMNSLRAEDTAMYYCARERYSGITGNPYGFDFWGQGTMVTVSS VL: DIQLTQSPSFLSASVGDRVTITCWASQDISSYLAWYQQKPGIAPKLLIYSASTLQSGVPSSFSGSGSGTEFTLTISSLQPEDFATYYCQQLNIYPFTFGPGTKVDIK ?
(A) 289000
